biological target: human RXFP1 (Homo sapiens, UniProt Q9HBX9); construct: expressed in transfected cells; assay: RXFP1 cAMP assay (hRXFP1 HEK293 cAMP assay, HTRF); format: cell-based; conditions: HEK293 cells stably expressing human RXFP1, 30 min at room temperature, read-out: cAMP hRXFP1 HEK293 Assay EC50
Sequence (Q9HBX9 whole entry): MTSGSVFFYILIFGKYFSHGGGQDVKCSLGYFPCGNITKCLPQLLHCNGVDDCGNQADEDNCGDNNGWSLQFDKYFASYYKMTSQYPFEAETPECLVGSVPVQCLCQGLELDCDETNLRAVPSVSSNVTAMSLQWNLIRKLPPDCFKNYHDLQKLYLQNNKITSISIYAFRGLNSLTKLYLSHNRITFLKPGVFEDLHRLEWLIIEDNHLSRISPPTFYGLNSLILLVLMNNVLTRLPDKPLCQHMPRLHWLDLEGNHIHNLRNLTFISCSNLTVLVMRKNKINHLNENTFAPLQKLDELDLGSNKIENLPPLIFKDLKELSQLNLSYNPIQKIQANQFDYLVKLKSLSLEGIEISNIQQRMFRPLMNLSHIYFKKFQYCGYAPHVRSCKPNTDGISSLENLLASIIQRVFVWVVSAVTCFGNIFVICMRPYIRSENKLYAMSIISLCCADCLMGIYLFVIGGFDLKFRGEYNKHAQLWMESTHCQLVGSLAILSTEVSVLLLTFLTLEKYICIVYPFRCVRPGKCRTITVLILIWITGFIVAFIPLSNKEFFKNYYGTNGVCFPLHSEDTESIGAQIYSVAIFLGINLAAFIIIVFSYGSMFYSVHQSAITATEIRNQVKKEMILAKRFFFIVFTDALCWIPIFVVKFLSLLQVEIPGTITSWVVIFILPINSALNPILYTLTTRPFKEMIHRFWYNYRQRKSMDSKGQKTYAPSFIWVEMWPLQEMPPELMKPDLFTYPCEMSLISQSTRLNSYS
ENDPOINT LABEL: pEC50
Note on pEC50: it is the negative log10 of concentration, concentration in mol/L.

COc1cc(C)c(C2=NOC3CC(CO)CC23)cc1C(=O)N[C@H]1[C@@H](C(=O)Nc2ccc(F)c(C(F)(F)F)c2)[C@H]2CC[C@@H]1/C2=C\C1CC1 (stereo partly drawn) [compound 738] : 8.48

Query string: Name the recorded pEC50 of the compound listed here: COc1ccc(-c2cc(C(C)OC(=O)Nc3ccc(F)cc3)ccc2F)cc1C(=O)N[C@@H]1C2CCC(/C2=C/C2CC2)[C@@H]1C(=O)Nc1ccc(F)c(C(F)(F)F)c1 (stereo partly drawn)
Result string: 8.52

Query string: Name the recorded pEC50 of the compound listed here: COc1ccc(-c2ccc(C(=O)O)cc2F)cc1C(=O)N[C@@H]1C2CCC(/C2=C/C(F)(F)F)[C@@H]1C(=O)Nc1ccc(F)c(C(F)(F)F)c1 (stereo partly drawn)
Result string: 7.49
